tested target: Cytochrome P450 1A2 (Homo sapiens)
assay remarks: p450-cyp1a2 (AID 410)
condition set: recombinant CYP1A2, luciferin-ME demethylation, luminescence; series mostly up to 57 µM
Results filed as inconclusive are left out. Calls of active or inactive are those of the source. Calls come from the whole dose curve.
Possible outcomes: active, inactive

[
  {
    "structure": "COc1cc(OC)c(/C=C2/C(=O)Nc3ccccc32)c(OC)c1",
    "classification": "active"
  },
  {
    "structure": "NCCCCC(=O)O",
    "classification": "inactive"
  },
  {
    "structure": "O=C(O)c1cc([N+](=O)[O-])ccc1NCCCc1ccccc1",
    "classification": "active"
  },
  {
    "structure": "Clc1ccccc1-c1nc(-c2ccncc2)no1",
    "classification": "active"
  },
  {
    "structure": "N#C/C(=C\\c1c[nH]c2ccccc12)C(=O)c1ccc(O)c(O)c1",
    "classification": "active"
  },
  {
    "structure": "NC(N)=NC(=O)c1nc(Cl)c(N2CCCCCC2)nc1N",
    "classification": "active"
  },
  {
    "structure": "O=C(O)CC[C@@H](C(=O)O)N1C(=O)c2ccccc2C1=O",
    "classification": "inactive"
  },
  {
    "structure": "O=C(Nc1cccc(C(=O)Nc2ccc(S(=O)(=O)O)c3cc(S(=O)(=O)O)cc(S(=O)(=O)O)c23)c1)Nc1cccc(C(=O)Nc2ccc(S(=O)(=O)O)c3cc(S(=O)(=O)O)cc(S(=O)(=O)O)c23)c1",
    "classification": "inactive"
  },
  {
    "structure": "Oc1ccccc1O",
    "classification": "inactive"
  },
  {
    "structure": "O=C(O)c1cc(=O)c2c(Cl)cc(Cl)cc2[nH]1",
    "classification": "inactive"
  },
  {
    "structure": "CN=c1nc(-c2ccccc2)n(-c2ccccc2)s1",
    "classification": "active"
  }
]

====

tested target: RecQ-like DNA helicase BLM (Homo sapiens)
assay remarks: qHTS Validation Assay for Inhibitors of Bloom's syndrome helicase (BLM) (AID 2364)
condition set: BLM helicase DNA unwinding, fluorescence, in vitro; series mostly up to 57.1 µM
Description: Survival of cells and the faithful propagation of the genome depend on elaborate mechanisms of detecting and repairing DNA damage. […] The validation assay was a fluorescence quenching based kinetic qHTS for BLM Helicase DNA unwinding. The activity was measured as ATP-dependent separation of a 20-bp DNA duplex extended by 30-nt single-stranded tails (forked duplex). […] Strand separation results in an increase in the fluorescence of TAMRA (excitation 525 nm, emission 598 nm). […]
Records with an inconclusive call do not appear. The source made the active and inactive calls. Calls follow the shape of the dose curve; as a rule, active = well fitted inhibition curve with a large enough effect; inconclusive = small, poorly fitted or top-dose-only effect; inactive = no such curve, though single readings can be large or run the other way.
Possible outcomes: T = active, F = inactive

[
  {
    "compound": "COc1cccc(C(=O)NCCN2CCN(c3ccc(Cl)cc3)CC2)c1",
    "classification": "F"
  },
  {
    "compound": "C[C@@H](CN1CCC(Cc2ccccc2)CC1)[C@@H](O)c1ccc(O)cc1",
    "classification": "F"
  },
  {
    "compound": "CN(C)CCC(c1ccc(Cl)cc1)c1ccccn1 (stereo not drawn)",
    "classification": "F"
  },
  {
    "compound": "O=C1C(SCCO)=C(SCCO)C(=O)c2ccccc21",
    "classification": "T"
  },
  {
    "compound": "CO/N=C(\\C(=O)N[C@@H]1C(=O)N2C(C(=O)O)=C(COC(C)=O)CS[C@H]12)c1csc(N)n1 (stereo in doubt)",
    "classification": "F"
  },
  {
    "compound": "CC(C)NCC(O)COc1cccc2ccccc12 (stereo not drawn)",
    "classification": "F"
  },
  {
    "compound": "CN1[C@@H](CC(=O)c2ccccc2)CCC[C@H]1C[C@H](O)c1ccccc1",
    "classification": "F"
  },
  {
    "compound": "CCCn1c(=O)c2[nH]c(-c3ccc(OCC(=O)NCCN)cc3)nc2n(CCC)c1=O",
    "classification": "F"
  },
  {
    "compound": "COc1ccc(/C=C/C(=O)Nc2ccccc2C(=O)O)cc1OC",
    "classification": "F"
  },
  {
    "compound": "NCCCCCCCCCCN",
    "classification": "F"
  },
  {
    "compound": "Nc1ccn([C@@H]2O[C@H](CO)[C@@H](O)[C@@H]2O)c(=O)n1",
    "classification": "F"
  },
  {
    "compound": "CC(COc1ccc(/C=C/c2ccccc2)cc1)[N+](C)(C)C (stereo not drawn)",
    "classification": "F"
  },
  {
    "compound": "Clc1ccc(N2CCN(Cc3c[nH]c4ncccc34)CC2)cc1",
    "classification": "F"
  },
  {
    "compound": "CCCCC/C=C\\CC(O)/C=C/c1cccc(CC(O)CCCCO)n1 (stereo not drawn)",
    "classification": "F"
  },
  {
    "compound": "O=C(Nc1ccccc1)c1cc([N+](=O)[O-])ccc1Cl",
    "classification": "F"
  },
  {
    "compound": "NC[C@@H]1O[C@H](C23CC4CC(CC(C4)C2)C3)Cc2c1ccc(O)c2O",
    "classification": "F"
  },
  {
    "compound": "CC(=O)N[C@H](C(=O)O)C(C)(C)SN=O",
    "classification": "F"
  },
  {
    "compound": "CCCCCCCCCCCCCCCCCC(=O)OC(CC(=O)O)C[N+](C)(C)C (stereo not drawn)",
    "classification": "F"
  },
  {
    "compound": "COc1cc2nc(N3CCN(C(=O)OCc4ccccc4)C(C(=O)NC(C)(C)C)C3)nc(N)c2cc1OC (stereo not drawn)",
    "classification": "F"
  },
  {
    "compound": "CN(C)c1nc(N)c(C(=O)N=C(N)N)nc1Cl",
    "classification": "F"
  },
  {
    "compound": "O=C(O)c1cc(=O)c2ccccc2[nH]1",
    "classification": "F"
  },
  {
    "compound": "CCCCN1CCC(n2c(=O)[nH]c3ccccc32)CC1",
    "classification": "F"
  },
  {
    "compound": "N#C/C(=C\\c1c[nH]c2ccccc12)C(=O)c1ccc(O)c(O)c1",
    "classification": "T"
  }
]

====

assay remarks: MultiTox-Fluor Cytotoxicity Assay - LYMP1-001 - Dead Cells (AID 946);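 note: cells exposed to compound for 16 h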
condition set: LYMP1-001 lymphoblastoid cells, dead-cell protease fluorescence; series mostly up to 92.2 µM
Records with an inconclusive call do not appear. Active and inactive are the calls of the source. The call rests on the fitted dose curve; in most records, active means well fitted cell-killing curve with a large enough effect; inconclusive means small, poorly fitted or top-dose-only effect, or effect the other way; inactive means flat fitted curve, though single readings scatter.
Possible outcomes: active, inactive

[
  {
    "compound": "CN(C)c1ccc(C(=C2C=CC(=[N+](C)C)C=C2)c2ccccc2)cc1",
    "classification": "active"
  },
  {
    "compound": "Nc1ccc(O)c([N+](=O)[O-])c1",
    "classification": "inactive"
  },
  {
    "compound": "O=c1cc(-c2ccccc2)oc2ccccc12",
    "classification": "inactive"
  },
  {
    "compound": "O=C(O)/C=C\\C(=O)O",
    "classification": "inactive"
  },
  {
    "compound": "CC(C)NCC(O)COc1cccc2ccccc12 (stereo not drawn)",
    "classification": "inactive"
  },
  {
    "compound": "O=C(O)c1cc(O)c(O)c(O)c1",
    "classification": "inactive"
  },
  {
    "compound": "CN(C)CCC(c1ccc(Cl)cc1)c1ccccn1 (stereo not drawn)",
    "classification": "inactive"
  },
  {
    "compound": "Nc1ccc(O)c(C(=O)O)c1",
    "classification": "inactive"
  }
]

====

tested target: Chromobox protein homolog 1 (Homo sapiens) (UniProt P83916)
Sequence (P83916 whole entry, looked up): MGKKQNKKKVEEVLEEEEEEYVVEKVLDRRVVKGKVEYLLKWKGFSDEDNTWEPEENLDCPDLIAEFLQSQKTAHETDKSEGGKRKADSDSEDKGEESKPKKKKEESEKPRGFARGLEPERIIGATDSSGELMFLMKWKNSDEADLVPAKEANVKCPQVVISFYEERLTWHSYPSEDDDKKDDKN
assay remarks: qHTS Validation Assay for Inhibitors of HP1-beta Chromodomain Interactions with Methylated Histone Tails (AID 488953); note: nearly all actives have a fitted effect of over 50% in size
condition set: HP1-beta chromodomain / methylated histone peptide binding assay; series mostly up to 114 µM
Records with an inconclusive call do not appear. Calls of active or inactive are those of the source. Calls come from the whole dose curve; as a rule, active = well fitted inhibition curve with a large enough effect; inconclusive = small, poorly fitted or top-dose-only effect; inactive = no such curve, though single readings can be large or run the other way.
Possible outcomes: Y = active, N = inactive

[
  {
    "molecule": "NC(CCCP(=O)(O)O)C(=O)O (stereo unspecified)",
    "classification": "N"
  },
  {
    "molecule": "CC(=O)SCC[N+](C)(C)C",
    "classification": "N"
  },
  {
    "molecule": "O=Nc1ccc2oc(=O)ccc2c1",
    "classification": "Y"
  },
  {
    "molecule": "CCCCC#Cc1nc(NC)c2ncn([C@@H]3O[C@H](CO)[C@@H](O)[C@H]3O)c2n1",
    "classification": "N"
  },
  {
    "molecule": "S=C(S)OC1CC2CC1C1CCCC21 (stereo unspecified)",
    "classification": "Y"
  },
  {
    "molecule": "C=C[C@H]1CN2CC[C@@H]1C[C@@H]2[C@@H](O)c1ccnc2ccc(OC)cc12",
    "classification": "N"
  },
  {
    "molecule": "Oc1cc2c(cc1O)CN(C(=S)NCCc1ccc(Cl)cc1)CCC2",
    "classification": "Y"
  },
  {
    "molecule": "CCCC1(C)C(C#N)(C#N)C1(C#N)C#N",
    "classification": "N"
  },
  {
    "molecule": "CO/N=C(\\C(=O)N[C@@H]1C(=O)N2C(C(=O)O)=C(COC(C)=O)CS[C@H]12)c1csc(N)n1",
    "classification": "Y"
  },
  {
    "molecule": "O=C1C(SCCO)=C(SCCO)C(=O)c2ccccc21",
    "classification": "Y"
  },
  {
    "molecule": "Nc1nc(Cl)nc2c1ncn2[C@@H]1O[C@H](CO)[C@@H](O)[C@H]1O",
    "classification": "N"
  },
  {
    "molecule": "N.N.N.N.N.N.N.N.N.N.N.N.N.N.O.O.[Ru+4].[Ru+5].[Ru+5]",
    "classification": "Y"
  },
  {
    "molecule": "NCCCCC(=O)O",
    "classification": "N"
  },
  {
    "molecule": "OCC1O[C@H]([S-])[C@H](O)[C@@H](O)[C@@H]1O.[Au+] (stereo partly specified)",
    "classification": "Y"
  },
  {
    "molecule": "CN1C2CCC1CC(OC(=O)C(O)c1ccccc1)C2 (stereo unspecified)",
    "classification": "N"
  },
  {
    "molecule": "N#C/C(=C\\c1ccc(O)c(O)c1)C(=O)c1ccc(O)c(O)c1",
    "classification": "Y"
  },
  {
    "molecule": "O=C(O)[C@@H]1C[C@H](C(=O)O)N1",
    "classification": "N"
  },
  {
    "molecule": "O=C(O)/C=C/C(O)c1ccc(Cl)cc1 (stereo unspecified)",
    "classification": "N"
  },
  {
    "molecule": "C[C@@H](CN1CCC(Cc2ccccc2)CC1)[C@@H](O)c1ccc(O)cc1",
    "classification": "N"
  },
  {
    "molecule": "O=C(Nc1cccc(C(=O)Nc2ccc(S(=O)(=O)O)c3cc(S(=O)(=O)O)cc(S(=O)(=O)O)c23)c1)Nc1cccc(C(=O)Nc2ccc(S(=O)(=O)O)c3cc(S(=O)(=O)O)cc(S(=O)(=O)O)c23)c1",
    "classification": "Y"
  },
  {
    "molecule": "O=C(O)CNC(=O)C(CS)Cc1ccccc1 (stereo unspecified)",
    "classification": "N"
  }
]
